# protocol: Half life in rat liver microsomes
# Format: ADME

| compound | inequality.symbol | half-life, min |
| --- | --- | --- |
| O=C(c1ccc(F)cc1)N1CCn2c(nnc2-c2ccccn2)C1 | > | 240 |
| N#CC(c1ccccn1)c1ccnc(N2CCN(C(=O)c3ccc(F)cc3)CC2)n1 (configuration not stated) | = | 13 |

----------
Entries below carry reported IC50 on UniProt:Q12809.
Sequence (Q12809 whole entry): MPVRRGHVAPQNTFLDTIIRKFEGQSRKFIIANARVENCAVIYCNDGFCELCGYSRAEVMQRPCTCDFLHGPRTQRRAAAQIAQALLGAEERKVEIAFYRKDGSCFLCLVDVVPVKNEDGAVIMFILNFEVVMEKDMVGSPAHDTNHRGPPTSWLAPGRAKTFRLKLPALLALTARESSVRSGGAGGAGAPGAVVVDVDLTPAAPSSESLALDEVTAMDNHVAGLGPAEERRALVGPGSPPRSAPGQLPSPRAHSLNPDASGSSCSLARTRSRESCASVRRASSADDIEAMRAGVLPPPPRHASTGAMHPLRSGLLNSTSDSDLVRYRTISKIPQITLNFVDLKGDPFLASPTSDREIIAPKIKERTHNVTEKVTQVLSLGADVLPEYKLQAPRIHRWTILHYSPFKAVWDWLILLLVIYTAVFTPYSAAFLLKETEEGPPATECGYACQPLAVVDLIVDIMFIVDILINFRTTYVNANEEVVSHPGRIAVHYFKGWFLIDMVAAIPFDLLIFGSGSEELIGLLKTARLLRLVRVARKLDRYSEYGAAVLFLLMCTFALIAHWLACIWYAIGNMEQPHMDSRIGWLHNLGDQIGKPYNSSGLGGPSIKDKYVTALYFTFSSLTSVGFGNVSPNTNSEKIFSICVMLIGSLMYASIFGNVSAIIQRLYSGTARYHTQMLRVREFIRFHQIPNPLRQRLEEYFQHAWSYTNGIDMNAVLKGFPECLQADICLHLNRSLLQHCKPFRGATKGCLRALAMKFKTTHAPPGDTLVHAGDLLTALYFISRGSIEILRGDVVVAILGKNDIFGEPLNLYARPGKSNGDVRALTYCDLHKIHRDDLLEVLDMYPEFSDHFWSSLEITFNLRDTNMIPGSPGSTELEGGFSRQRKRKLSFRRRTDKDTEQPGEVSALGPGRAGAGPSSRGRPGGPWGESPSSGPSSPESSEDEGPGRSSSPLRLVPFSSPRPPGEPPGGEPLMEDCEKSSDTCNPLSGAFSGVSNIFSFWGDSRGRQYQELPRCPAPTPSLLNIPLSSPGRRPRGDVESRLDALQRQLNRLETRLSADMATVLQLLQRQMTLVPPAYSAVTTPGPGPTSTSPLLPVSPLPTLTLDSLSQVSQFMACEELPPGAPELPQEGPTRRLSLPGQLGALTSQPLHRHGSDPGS

| query.smiles | assayed.system | IC50 |
| --- | --- | --- |
| Cc1nc(-c2nnc3n2CCN(C(=O)c2ccc(-c4cccs4)cc2)C3)cs1 | UniProt:Q12809 | 27 µM |
| Cc1nc(-c2nnc3n2CCN(C(=O)c2ccc(-c4cccs4)cc2)[C@@H]3C)cs1 | UniProt:Q12809 | 24 µM |

----------
# assayed.system: Cytochrome P450 1A2 (Homo sapiens)
# Sequence (P05177 whole entry): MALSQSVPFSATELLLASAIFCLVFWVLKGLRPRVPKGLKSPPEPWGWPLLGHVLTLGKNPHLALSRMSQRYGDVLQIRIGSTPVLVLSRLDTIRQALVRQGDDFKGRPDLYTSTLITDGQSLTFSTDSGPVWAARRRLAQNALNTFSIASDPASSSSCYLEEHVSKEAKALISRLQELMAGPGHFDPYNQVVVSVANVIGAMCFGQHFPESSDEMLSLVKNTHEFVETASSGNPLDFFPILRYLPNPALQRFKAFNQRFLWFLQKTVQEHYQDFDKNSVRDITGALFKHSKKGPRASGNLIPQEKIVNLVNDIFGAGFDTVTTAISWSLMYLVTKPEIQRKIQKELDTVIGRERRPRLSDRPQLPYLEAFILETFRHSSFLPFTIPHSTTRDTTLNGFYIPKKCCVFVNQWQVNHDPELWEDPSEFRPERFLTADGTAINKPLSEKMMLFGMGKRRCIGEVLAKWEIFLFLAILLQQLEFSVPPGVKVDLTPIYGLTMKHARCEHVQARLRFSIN
# protocol: Inhibition of CYP1A2 (unknown origin) by luciferase reporter assay in presence of NADPH regeneration system
pIC50: −log10 of the molar value.
Item-by-item account of pIC50
endpoint.label: pIC50

| compound | endpoint.label | inequality.symbol | assay.result |
| --- | --- | --- | --- |
| N#CC(c1ccccn1)c1ccnc(N2CCN(C(=O)c3ccc(F)cc3)CC2)n1 (stereo unspecified) | pIC50 | > | 5.30 |
| Cc1cncc(-c2nnc3n2CCN(C(=O)c2ccc(-c4cccs4)cc2)[C@@H]3C)n1 | pIC50 | = | 4.30 |
| Cc1nc(-c2nnc3n2CCN(C(=O)c2ccc(F)cc2)[C@@H]3C)cs1 | pIC50 | < | 4.00 |
| Cc1cccc(-c2nnc3n2CCN(C(=O)c2ccc(F)cc2)C3)n1 | pIC50 | = | 4.16 |
| Cc1nc(-c2nnc3n2CCN(C(=O)c2ccc(-c4cccs4)cc2)C3)cs1 | pIC50 | = | 4.72 |
| C[C@@H]1c2nnc(-c3csc(C(F)(F)F)n3)n2CCN1C(=O)c1ccc(-c2cccs2)cc1 | pIC50 | = | 5.10 |
| CC(C)c1nc(-c2nnc3n2CCN(C(=O)c2ccc(-c4cccs4)cc2)[C@@H]3C)cs1 | pIC50 | = | 4.77 |
| CC(C)c1nc(-c2nnc3n2CCN(C(=O)c2ccc(-c4cccs4)cc2)[C@@H]3C)co1 | pIC50 | = | 4.09 |
| C[C@@H]1c2nnc(-c3csc(-c4ccc(F)cc4F)n3)n2CCN1C(=O)c1ccc(-c2cccs2)cc1 | pIC50 | = | 4.68 |
| O=C(c1ccc(F)cc1)N1CCn2c(nnc2-c2ccccn2)C1 | pIC50 | = | 4.57 |
| Cc1csc(-c2nnc3n2CCN(C(=O)c2ccc(-c4cccs4)cc2)[C@@H]3C)n1 | pIC50 | = | 5.10 |

----------
Item-by-item account of pIC50
# assayed.system: Cytochrome P450 3A4 (Homo sapiens)
# Sequence (P08684 whole entry): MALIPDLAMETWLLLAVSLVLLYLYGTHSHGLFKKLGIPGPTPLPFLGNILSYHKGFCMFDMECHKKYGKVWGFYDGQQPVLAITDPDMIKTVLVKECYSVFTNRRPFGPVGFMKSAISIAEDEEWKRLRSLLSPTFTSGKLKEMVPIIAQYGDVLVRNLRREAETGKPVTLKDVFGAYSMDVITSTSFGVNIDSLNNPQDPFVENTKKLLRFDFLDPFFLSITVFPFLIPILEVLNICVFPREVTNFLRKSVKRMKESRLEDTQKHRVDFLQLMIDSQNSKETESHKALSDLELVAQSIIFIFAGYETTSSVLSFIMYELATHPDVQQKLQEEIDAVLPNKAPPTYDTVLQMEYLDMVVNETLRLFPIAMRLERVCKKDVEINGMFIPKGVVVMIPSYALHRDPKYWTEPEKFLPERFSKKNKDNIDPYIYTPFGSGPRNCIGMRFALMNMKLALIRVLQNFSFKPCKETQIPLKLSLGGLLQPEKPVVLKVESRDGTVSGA
# protocol: Inhibition of CYP3A4 (unknown origin) by luciferase reporter assay in presence of NADPH regeneration system
pIC50: −log10 of the molar value.

| query.smiles | inequality.symbol | pIC50 |
| --- | --- | --- |
| C[C@@H]1c2nnc(-c3csc(-c4ccc(F)cc4F)n3)n2CCN1C(=O)c1ccc(-c2cccs2)cc1 | = | 4.72 |
| Cc1cccc(-c2nnc3n2CCN(C(=O)c2ccc(F)cc2)C3)n1 | < | 4.00 |
| Cc1nc(-c2nnc3n2CCN(C(=O)c2ccc(F)cc2)[C@@H]3C)cs1 | = | 4.20 |
| C[C@@H]1c2nnc(-c3csc(C(F)(F)F)n3)n2CCN1C(=O)c1ccc(-c2cccs2)cc1 | < | 4.00 |
| Cc1cncc(-c2nnc3n2CCN(C(=O)c2ccc(-c4cccs4)cc2)[C@@H]3C)n1 | = | 5.70 |
| Cc1nc(-c2nnc3n2CCN(C(=O)c2ccc(-c4cccs4)cc2)[C@@H]3C)cs1 | = | 4.30 |
| Cc1noc(-c2nnc3n2CCN(C(=O)c2ccc(-c4cccs4)cc2)[C@@H]3C)n1 | = | 4.26 |
| O=C(c1ccc(F)cc1)N1CCn2c(nnc2-c2cccc(C(F)(F)F)n2)C1 | < | 4.00 |
| CC(C)c1nc(-c2nnc3n2CCN(C(=O)c2ccc(-c4cccs4)cc2)[C@@H]3C)co1 | = | 4.37 |
| C[C@@H]1c2nnc(-c3csc(-c4ccccc4)n3)n2CCN1C(=O)c1ccc(F)cc1 | = | 4.17 |
| Cc1csc(-c2nnc3n2CCN(C(=O)c2ccc(-c4cccs4)cc2)[C@@H]3C)n1 | = | 4.96 |
| Cc1nc(-c2nnc3n2CCN(C(=O)c2ccc(-c4cccs4)cc2)C3)cs1 | = | 4.52 |
| O=C(c1ccc(F)cc1)N1CCn2c(nnc2-c2ccccn2)C1 | < | 4.00 |
| Cc1cccc(-c2nnc3n2CCN(C(=O)c2ccc(-c4cccs4)cc2)[C@@H]3C)n1 | = | 4.35 |
| CC(C)c1nc(-c2nnc3n2CCN(C(=O)c2ccc(-c4cccs4)cc2)[C@@H]3C)cs1 | = | 4.46 |

----------
Entries below carry reported Ki on NK-3 receptor (Macaca mulatta).
Sequence (Q2WGM0 whole entry): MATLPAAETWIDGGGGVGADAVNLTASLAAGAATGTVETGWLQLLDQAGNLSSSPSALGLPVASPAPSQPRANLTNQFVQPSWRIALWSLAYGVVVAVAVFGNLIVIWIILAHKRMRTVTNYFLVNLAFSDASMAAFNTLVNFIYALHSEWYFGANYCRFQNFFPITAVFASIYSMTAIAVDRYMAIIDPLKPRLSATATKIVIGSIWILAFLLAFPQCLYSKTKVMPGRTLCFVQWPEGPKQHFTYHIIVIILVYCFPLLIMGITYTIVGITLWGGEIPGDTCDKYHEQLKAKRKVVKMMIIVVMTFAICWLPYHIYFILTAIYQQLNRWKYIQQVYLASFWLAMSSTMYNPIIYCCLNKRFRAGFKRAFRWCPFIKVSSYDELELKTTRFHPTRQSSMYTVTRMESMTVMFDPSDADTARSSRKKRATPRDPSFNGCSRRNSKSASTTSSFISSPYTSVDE
endpoint.label: Ki (nM)

| query.smiles | endpoint.label | assay.result |
| --- | --- | --- |
| Cc1nc(-c2nnc3n2CCN(C(=O)c2ccc(-c4cccs4)cc2)[C@@H]3C)cs1 | Ki | 20 |
| C[C@@H]1c2nnc(-c3csc(-c4ccc(F)cc4F)n3)n2CCN1C(=O)c1ccc(-c2cccs2)cc1 | Ki | 3.98 |
| Cc1nsc(-c2nnc3n2CCN(C(=O)c2ccc(-c4cccs4)cc2)[C@@H]3C)n1 | Ki | 6.31 |
| Cc1noc(-c2nnc3n2CCN(C(=O)c2ccc(-c4cccs4)cc2)[C@@H]3C)n1 | Ki | 25.1 |
| CC(C)c1nc(-c2nnc3n2CCN(C(=O)c2ccc(-c4cccs4)cc2)[C@@H]3C)co1 | Ki | 6.31 |

----------
# protocol: in vivo
# measurement.parameters: Sprague-Dawley, rat, po, 3 mg/kg
endpoint.label: Tmax

| query.smiles | endpoint.label | assay.result |
| --- | --- | --- |
| Cc1noc(-c2nnc3n2CCN(C(=O)c2ccc(-c4cccs4)cc2)[C@@H]3C)n1 | Tmax | 35 min |
| C[C@@H]1c2nnc(-c3csc(-c4ccc(F)cc4F)n3)n2CCN1C(=O)c1ccc(-c2cccs2)cc1 | Tmax | 45 min |
| CC[C@H](NC(=O)c1c(O)c(-c2ccccc2)nc2ccccc12)c1ccccc1 | Tmax | 60 min |
| CC(=O)N(C)C1(c2ccccc2)CCN(CCC[C@]2(c3ccc(Cl)c(Cl)c3)CCCN(C(=O)c3ccccc3)C2)CC1 | Tmax | 45 min |
| CC(C)c1nc(-c2nnc3n2CCN(C(=O)c2ccc(-c4cccs4)cc2)[C@@H]3C)co1 | Tmax | 68 min |
| Cc1nc(-c2nnc3n2CCN(C(=O)c2ccc(-c4cccs4)cc2)[C@@H]3C)cs1 | Tmax | 45 min |

----------
Item-by-item account of fAUC
# Tested on: Rattus norvegicus
# protocol: Unbound AUC in Sprague-Dawley rat at 3 mg/kg, po by LC-MS/MS analysis
# Format: ADME, organism-based
# Design: dose 3 mg/kg, route oral
# measurement.parameters: in vivo
endpoint.label: fAUC (µM·min)

| query.smiles | endpoint.label | output.unit | assay.result |
| --- | --- | --- | --- |
| C[C@@H]1c2nnc(-c3csc(-c4ccc(F)cc4F)n3)n2CCN1C(=O)c1ccc(-c2cccs2)cc1 | fAUC | µM·min | 0.1 |
| Cc1noc(-c2nnc3n2CCN(C(=O)c2ccc(-c4cccs4)cc2)[C@@H]3C)n1 | fAUC | µM·min | 46.3 |
| CC(=O)N(C)C1(c2ccccc2)CCN(CCC[C@]2(c3ccc(Cl)c(Cl)c3)CCCN(C(=O)c3ccccc3)C2)CC1 | fAUC | µM·min | 0.1 |
| CC(C)c1nc(-c2nnc3n2CCN(C(=O)c2ccc(-c4cccs4)cc2)[C@@H]3C)co1 | fAUC | µM·min | 13.6 |
| CC[C@H](NC(=O)c1c(O)c(-c2ccccc2)nc2ccccc12)c1ccccc1 | fAUC | µM·min | 0.7 |
| Cc1nc(-c2nnc3n2CCN(C(=O)c2ccc(-c4cccs4)cc2)[C@@H]3C)cs1 | fAUC | µM·min | 60.3 |
